System: HUVEC/MSC spheroids viability
Test: Human HUVEC/MSC cell line growth inhibition [KRAS2];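 also: percent of DMSO vehicle control luminescence so 100% = untreated viability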
Conditions: second compound 0.3 µM; first compound 0.316 µM; stronger effect = lower value
Listing of entries alongside the reported viability, T/C.
Provide only the numeric value, understood in %.

Guide cases for viability, T/C, answers given:
COMPOUND	MEASURED TARGET	viability, T/C (%)
COc1cc2nccc(Oc3ccc(NC(=O)C4(C(=O)Nc5ccc(F)cc5)CC4)cc3)c2cc1OC + C=CC(=O)N1CCN(c2nc(OCC3CCCN3C)nc3c2CCN(c2cccc4cccc(C)c24)C3)CC1CC#N	HUVEC/MSC spheroids viability	85.7
Cn1nccc1Nc1nccc(-c2cc3c(s2)C(C)(C)N(CCN2CCOCC2)C3=O)n1 + C=CC(=O)N1CCN(c2nc(OCC3CCCN3C)nc3c2CCN(c2cccc4cccc(C)c24)C3)CC1CC#N	HUVEC/MSC spheroids viability	99.6
CC(C)NCC(C(=O)N1CCN(c2ncnc3c2C(C)CC3O)CC1)c1ccc(Cl)cc1 (stereo not given) + C=CC(=O)N1CCN(c2nc(OCC3CCCN3C)nc3c2CCN(c2cccc4cccc(C)c24)C3)CC1CC#N	HUVEC/MSC spheroids viability	84

Q: Give reported viability, T/C value for COC(=O)c1ccc2c(C(=Nc3ccc(N(C)C(=O)CN4CCN(C)CC4)cc3)c3ccccc3)c(O)[nH]c2c1 + C=CC(=O)N1CCN(c2nc(OCC3CCCN3C)nc3c2CCN(c2cccc4cccc(C)c24)C3)CC1CC#N
Result: 78.3

Q: Give reported viability, T/C value for COc1cc(Nc2ncc3c(n2)-c2ccc(Cl)cc2C(c2c(F)cccc2OC)=NC3)ccc1C(=O)O + C=CC(=O)N1CCN(c2nc(OCC3CCCN3C)nc3c2CCN(c2cccc4cccc(C)c24)C3)CC1CC#N
Result: 76.9

====

Listing of entries alongside the reported viability, T/C.
Tested on: HUVEC/MSC spheroids viability
Assay: Human HUVEC/MSC cell line growth inhibition [KRAS2];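 also: percent of DMSO vehicle control luminescence so 100% = untreated viability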
Conditions: second compound 1 µM; first compound 1 µM; stronger effect = lower value
Provide only the numeric value, understood in %.

Guide cases for viability, T/C, answers given:
COMPOUND	PROPERTY MEASURED	NUMERIC RESULT
O=C(c1cc(Cc2n[nH]c(=O)c3ccccc23)ccc1F)N1CCN(C(=O)C2CC2)CC1 + CNCc1ccccc1-c1csc(C(C)Nc2nc(C)nc3cc(OC)c(OC)cc23)c1	viability, T/C	81.1
COC(=O)c1ccc2c(C(=Nc3ccc(N(C)C(=O)CN4CCN(C)CC4)cc3)c3ccccc3)c(O)[nH]c2c1 + CC1OCC2(CCN(c3cnc(Sc4ccnc(N)c4Cl)c(N)n3)CC2)C1N	viability, T/C	33.4
CCNC(=O)CC1N=C(c2ccc(Cl)cc2)c2cc(OC)ccc2-n2c(C)nnc21 (centres undefined) + C=CC(=O)N1CCN(c2nc(=O)n(-c3c(C)ccnc3C(C)C)c3nc(-c4c(O)cccc4F)c(F)cc23)C(C)C1	viability, T/C	163

// next item, viability, T/C requested
Q: Give reported viability, T/C value for CC1(C)CCC(CN2CCN(c3ccc(C(=O)NS(=O)(=O)c4ccc(NCC5CCOCC5)c([N+](=O)[O-])c4)c(Oc4cnc5[nH]ccc5c4)c3)CC2)=C(c2ccc(Cl)cc2)C1 + CC1OCC2(CCN(c3cnc(Sc4ccnc(N)c4Cl)c(N)n3)CC2)C1N
Result: 92.3

====

Listing of entries alongside the reported viability, T/C.
System: HUVEC/MSC spheroids viability
Experiment: Human HUVEC/MSC cell line growth inhibition [KRAS2];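 also: percent of DMSO vehicle control luminescence so 100% = untreated viability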
Settings: second compound 0.1 µM; first compound 0.316 µM; stronger effect = lower value
Text: Multicellular complex tumor spheroid response to RAS pathway inhibitors in combination with a targeted agents in patient-derived cell lines with oncogenic KRAS variants from multiple cancer types A high-throughput screen of multi-cell type tumor spheroids was designed to identify active combinations of targeted small molecules and KRAS pathway inhibitors. […] Compounds. […] If the clinical Cmax for an agent had not been determined, the highest concentration tested was 10 microM. […]
Provide only the numeric value, understood in %.

Guide cases for viability, T/C, answers given:
COMPOUND	UNIT STRING	viability, T/C
COc1cc(Nc2ncc3c(n2)-c2ccc(Cl)cc2C(c2c(F)cccc2OC)=NC3)ccc1C(=O)O + COc1cc2nc(C)nc(NC(C)c3cc(N)cc(C(F)(F)F)c3)c2cc1OC1CCOC1	%	105
COc1cc(Nc2ncc3c(n2)-c2ccc(Cl)cc2C(c2c(F)cccc2OC)=NC3)ccc1C(=O)O + CNCc1ccccc1-c1csc(C(C)Nc2nc(C)nc3cc(OC)c(OC)cc23)c1	%	98
CCNC(=O)CC1N=C(c2ccc(Cl)cc2)c2cc(OC)ccc2-n2c(C)nnc21 (centres undefined) + CNCc1ccccc1-c1csc(C(C)Nc2nc(C)nc3cc(OC)c(OC)cc23)c1	%	109

// next item, viability, T/C requested
Q: Give reported viability, T/C value for COc1cc2nccc(Oc3ccc(NC(=O)C4(C(=O)Nc5ccc(F)cc5)CC4)cc3)c2cc1OC + COc1cc2nc(C)nc(NC(C)c3cc(N)cc(C(F)(F)F)c3)c2cc1OC1CCOC1
Result: 68

====

Test system: HUVEC/MSC spheroids viability
Test: Human HUVEC/MSC cell line growth inhibition [KRAS2];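 also: percent of DMSO vehicle control luminescence so 100% = untreated viability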
Conditions: second compound 3.16 µM; first compound 0.1 µM; stronger effect = lower value
Listing of entries alongside the reported viability, T/C.
Provide only the numeric value, understood in %.

COMPOUND	viability, T/C, %
Cn1ncnc1[C@H]1c2n[nH]c(=O)c3cc(F)cc(c23)N[C@@H]1c1ccc(F)cc1 + CC1OCC2(CCN(c3cnc(Sc4ccnc(N)c4Cl)c(N)n3)CC2)C1N	69.2
COc1cc2nccc(Oc3ccc(NC(=O)C4(C(=O)Nc5ccc(F)cc5)CC4)cc3)c2cc1OC + CNCc1ccccc1-c1csc(C(C)Nc2nc(C)nc3cc(OC)c(OC)cc23)c1	104
CCNC(=O)CC1N=C(c2ccc(Cl)cc2)c2cc(OC)ccc2-n2c(C)nnc21 (stereo unspecified) + CC1OCC2(CCN(c3cnc(Sc4ccnc(N)c4Cl)c(N)n3)CC2)C1N	103
CC1OCC2(CCN(c3cnc(Sc4ccnc(N)c4Cl)c(N)n3)CC2)C1N (stereo unspecified) + COc1cc2nc(C)nc(NC(C)c3cc(N)cc(C(F)(F)F)c3)c2cc1OC1CCOC1	86.8
CC(C)NCC(C(=O)N1CCN(c2ncnc3c2C(C)CC3O)CC1)c1ccc(Cl)cc1 (stereo unspecified) + CNCc1ccccc1-c1csc(C(C)Nc2nc(C)nc3cc(OC)c(OC)cc23)c1	93.2
Cn1ncnc1[C@H]1c2n[nH]c(=O)c3cc(F)cc(c23)N[C@@H]1c1ccc(F)cc1 + COc1cc2nc(C)nc(NC(C)c3cc(N)cc(C(F)(F)F)c3)c2cc1OC1CCOC1	81.1
CC(C)NCC(C(=O)N1CCN(c2ncnc3c2C(C)CC3O)CC1)c1ccc(Cl)cc1 (stereo unspecified) + C=CC(=O)N1CCN(c2nc(=O)n(-c3c(C)ccnc3C(C)C)c3nc(-c4c(O)cccc4F)c(F)cc23)C(C)C1	124
COC(=O)c1ccc2c(C(=Nc3ccc(N(C)C(=O)CN4CCN(C)CC4)cc3)c3ccccc3)c(O)[nH]c2c1 + C=CC(=O)N1CCN(c2nc(=O)n(-c3c(C)ccnc3C(C)C)c3nc(-c4c(O)cccc4F)c(F)cc23)C(C)C1	149
CC(C)n1nc(-c2ccc3oc(N)nc3c2)c2c(N)ncnc21 + CNCc1ccccc1-c1csc(C(C)Nc2nc(C)nc3cc(OC)c(OC)cc23)c1	36.5
Cn1ncnc1[C@H]1c2n[nH]c(=O)c3cc(F)cc(c23)N[C@@H]1c1ccc(F)cc1 + CNCc1ccccc1-c1csc(C(C)Nc2nc(C)nc3cc(OC)c(OC)cc23)c1	75

Q: Given COC(=O)c1ccc2c(C(=Nc3ccc(N(C)C(=O)CN4CCN(C)CC4)cc3)c3ccccc3)c(O)[nH]c2c1 + COc1cc2nc(C)nc(NC(C)c3cc(N)cc(C(F)(F)F)c3)c2cc1OC1CCOC1 , report its viability, T/C on HUVEC/MSC spheroids viability.
Result: 68.5

Q: Given CN(C)C/C=C/C(=O)Nc1cc2c(Nc3ccc(F)c(Cl)c3)ncnc2cc1O[C@H]1CCOC1 + C=CC(=O)N1CCN(c2nc(=O)n(-c3c(C)ccnc3C(C)C)c3nc(-c4c(O)cccc4F)c(F)cc23)C(C)C1 , report its viability, T/C on HUVEC/MSC spheroids viability.
Result: 131

Q: Given CC1(C)CCC(CN2CCN(c3ccc(C(=O)NS(=O)(=O)c4ccc(NCC5CCOCC5)c([N+](=O)[O-])c4)c(Oc4cnc5[nH]ccc5c4)c3)CC2)=C(c2ccc(Cl)cc2)C1 + C=CC(=O)N1CCN(c2nc(=O)n(-c3c(C)ccnc3C(C)C)c3nc(-c4c(O)cccc4F)c(F)cc23)C(C)C1 , report its viability, T/C on HUVEC/MSC spheroids viability.
Result: 123

Q: Given Cn1nccc1Nc1nccc(-c2cc3c(s2)C(C)(C)N(CCN2CCOCC2)C3=O)n1 + CNCc1ccccc1-c1csc(C(C)Nc2nc(C)nc3cc(OC)c(OC)cc23)c1 , report its viability, T/C on HUVEC/MSC spheroids viability.
Result: 135

Q: Given CCN1CCN(Cc2ccc(Nc3ncc(F)c(-c4cc(F)c5nc(C)n(C(C)C)c5c4)n3)nc2)CC1 + CC1OCC2(CCN(c3cnc(Sc4ccnc(N)c4Cl)c(N)n3)CC2)C1N , report its viability, T/C on HUVEC/MSC spheroids viability.
Result: 80

Q: Given CC1OCC2(CCN(c3cnc(Sc4ccnc(N)c4Cl)c(N)n3)CC2)C1N (stereo unspecified) + C=CC(=O)N1CCN(c2nc(=O)n(-c3c(C)ccnc3C(C)C)c3nc(-c4c(O)cccc4F)c(F)cc23)C(C)C1 , report its viability, T/C on HUVEC/MSC spheroids viability.
Result: 136
